From: patent CN116082499A

Test System: T1, DENV抗原 (DENV阳性血清) (dengue virus (DENV), serotype )
T1 construct: also called DENV antigen in DENV-positive serum
Test Method Notes: sandwich ELISA, antibody at 12.5 ng/ml captured on goat anti-mouse IgG, DENV-positive serum, HRP-labelled DENV mAb
binders and their reported OD (450nm, 参考630nm)
Measurement Label: OD (450nm, 参考630nm) (OD)

binder="DF-5M32RMb2 (antibody, mouse IgG1, kappa, V domains shown, also called DF-8F13RMb2) VH: QVQLQQSGAELARPGASVKLSCKASGYTFLNYWMQWVKQRPGQGLEWIGAIYPGDGDTRYTQNFKGKAALTADKSSSTAYMQLSSLASEDSAVYYCATGTEGLLDYWGQGTSVTVSS VL: DAVMTQTPLTLSVLIGQPASLSCKSSQSLLESDGKTYLNWLFQRPGQSPKRLIYLVSKLESGVPDRFTGSGSGTEFTLKISRVEAEDLGVYYCWQATHHPLTFGTGTNLELKR" recorded_value=2.04
binder="DF-5M32RMb3 (antibody, mouse IgG1, kappa, V domains shown, also called DF-8F13RMb3) VH: QVQLQQSGAELARPGASVKLSCKASGYTFLNYWMQWVKQRPGQGLEWIGAIYPGDGDTRYTQNFKGKAALTADKSSSTAYMQLSSLASEDSAVYYCATGTEGILDYWGQGTSVTVSS VL: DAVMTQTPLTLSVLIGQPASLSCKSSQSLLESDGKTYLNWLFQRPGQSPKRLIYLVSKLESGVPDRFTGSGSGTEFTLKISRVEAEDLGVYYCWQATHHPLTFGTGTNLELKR" recorded_value=1.97
binder="DF-5M32RMb4 (antibody, mouse IgG1, kappa, V domains shown, also called DF-8F13RMb4) VH: QVQLQQSGAELARPGASVKLSCKASGYTFINYWMQWVKQRPGQGLEWIGAIYPGDGDTRYTQNFKGKAALTADKSSSTAYMQLSSLASEDSAVYYCATGTEGLLDYWGQGTSVTVSS VL: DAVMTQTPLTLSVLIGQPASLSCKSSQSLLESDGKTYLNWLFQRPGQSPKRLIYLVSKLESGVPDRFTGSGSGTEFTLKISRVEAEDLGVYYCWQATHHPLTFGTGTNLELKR" recorded_value=2.01
